These entries and their values trace back to patent US11498923B2.

target: human A2a receptor (Homo sapiens); construct: purchased Perkin-Elmer RBHA2AM400UA; host or cells: HEK293 cells, used as a membrane preparation; assay: A2a receptor competition binding assay (Scintillation Proximity); conditions: value printed in the synthesis text as 'A2a=' without quantity name; read-out: A2a
measurement type: Ki (nM)
Number in nM, nothing else.

input: Query: Ki; subject: Nc1nc2c(F)cccc2c2nc(Cc3ccc4c(c3)CN(C(=O)c3ccccc3)C4)cn12
output: 8.4

====

target: human A2a receptor (Homo sapiens, UniProt P29274); construct: purchased Perkin-Elmer RBHA2AM400UA; host or cells: HEK293 cells, used as a membrane preparation; test: A2a receptor competition binding assay (Scintillation Proximity); settings: membranes from HEK293 cells expressing human A2a receptor; 0.5 nM tritiated ligand; Cheng-Prusoff; read-out: A2a Ki
Sequence (P29274 whole entry): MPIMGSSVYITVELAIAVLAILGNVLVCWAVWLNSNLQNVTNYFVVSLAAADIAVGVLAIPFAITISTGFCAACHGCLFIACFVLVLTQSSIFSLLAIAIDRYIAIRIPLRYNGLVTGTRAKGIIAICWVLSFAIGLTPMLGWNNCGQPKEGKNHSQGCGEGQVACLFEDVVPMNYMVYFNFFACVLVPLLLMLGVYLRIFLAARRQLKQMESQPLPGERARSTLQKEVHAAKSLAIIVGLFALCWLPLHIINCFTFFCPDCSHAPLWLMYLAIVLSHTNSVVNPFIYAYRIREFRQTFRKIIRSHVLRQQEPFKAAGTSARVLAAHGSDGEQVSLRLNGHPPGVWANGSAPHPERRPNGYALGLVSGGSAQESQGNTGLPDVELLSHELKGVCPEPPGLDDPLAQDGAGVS
Entries and their pKi values follow.
Lab note: report pKi as minus log10 of the concentration in molar units, number only.

molecule | tested system | pKi
Nc1nc2c(Br)cccc2c2nc(CNCc3cccnc3)cn12 | human A2a receptor (Homo sapiens, UniProt P29274) | 8.02

input: // fetch human A2a receptor (Homo sapiens, UniProt P29274) pKi for COC(=O)C1CCN(C(=O)c2cn3c(N)nc4c(OC)cccc4c3n2)CC1
output: 7.54

input: Please give the result for COc1cccc2c1nc(N)n1cc(C(=O)N3CCCC4(CCCCO4)C3)nc21 (centres unmarked) too.
output: 7.92

input: Request: COc1cccc2c1nc(N)n1cc(C(=O)N3CCOC[C@@H]3C)nc21
output: 7.05

input: Consider next the molecule Nc1nc2c(Br)cccc2c2nc(CNCc3ccccc3)cn12 in the same way.
output: 8.04

====

Listed here are compounds together with their documented log10(Ki).
Target: human A2a receptor (Homo sapiens)
Construct: purchased Perkin-Elmer RBHA2AM400UA; host or cells: HEK293 cells, used as a membrane preparation
Experiment: A2a receptor competition binding assay (Scintillation Proximity)
Settings: membranes from HEK293 cells expressing human A2a receptor; 0.5 nM tritiated ligand; Cheng-Prusoff; read-out: A2a Ki
Procedure: Binding affinities of compounds of the invention for the human A2a receptor were determined in a competition binding assay using Scintillation Proximity technology. […] The beads were then allowed to settle to the bottom of the wells for 1 hr, after which the membrane-associated radioactivity was determined by scintillation counting in a TopCount microplate reader. Ki values were determined using the Cheng-Prusoff equation. […]
Short version: log10 scale, Ki, nM.

Recorded log10(Ki), per entry:
compound | log10(Ki)
COc1cccc2c1nc(N)n1cc(C(=O)N3CCCC(F)(F)C3)nc21 [Ex-172] | 1.26
COc1cccc2c1nc(N)n1cc(Cc3cccc(N4CCOCC4)c3)nc21 | 0.32
Nc1nc2ccccc2c2nc(-c3ccc(Br)cc3)cn12 | 2.61
COc1cccc2c1nc(N)n1cc(Cc3ccnc(N4CCN(C(C)=O)CC4)c3)nc21 | 0.87

input: Form field: reported log10(Ki) of Nc1nc2c(F)cccc2c2nc(CC3CCN(C(=O)OCc4ccccc4)CC3)cn12
output: 1.48

input: Another: COc1cccc2c1nc(N)n1cc(C(=O)N3CCC(C(C)C)CC3)nc21
output: 1.04

input: Now consider COc1cccc2c1nc(N)n1cc(C(=O)N3CC[C@H](OC)C3)nc21 and answer again.
output: 0.74

input: Proceed to COc1cccc2c1nc(N)n1cc(C(=O)N3CCCCC3)nc21
output: 1.32

input: Next up: COc1cccc2c1nc(N)n1cc(C(=O)N3CCCC4(C3)OCCO4)nc21
output: 1.00

input: Another: Cc1noc(C)c1-c1cccc2c1nc(N)n1cc(Cc3ccccc3)nc21
output: 1.54

input: Queued: COc1cccc2c1nc(N)n1cc(C(=O)N3CCC4CCCCC4C3)nc21 (centres unmarked)
output: 1.04
